Biological target: PcrV of the Type III secretion system on P. aeruginosa strain PA103 (Pseudomonas aeruginosa strain PA103)
Test: cell-based or functional assay
Hi there, I'd appreciate the recorded IC50 (nM), TTSS-dependent cytotoxicity assay (PA103 killing of P3-X63-Ag8 cells) for every entry that follows.
Kindly provide the numeric value in nM only, without the unit symbol.

Problem: // IC50 (nM), TTSS-dependent cytotoxicity assay (PA103 killing of P3-X63-Ag8 cells) lookup, key: Fab SEQ ID NOs: 13, 10 (Fab, V domains shown) VH: QVQLVESGGGVVQPGRSLRLSCAASGFTFSSYPLHWVRQAPGKGLEWVSFISYDGSEKYYASSVKGRFTISRDNSENTLYLQMNSLRPEDTAVYYCARNRGDIYYDFTYAMDIWGQGTMVTVSS VL: DIQLTQSPSFLSASVGDRVTITCRASQGISTYLAWYQQKPGKAPKLLIYDASALQSGVPSRFSGSGSGTEFTLTISSLQPEDVATYYCQQFWSTPYTFGQGTKLEIK
Solution: 25.5

Problem: Would you mind telling me what IC50 (nM), TTSS-dependent cytotoxicity assay (PA103 killing of P3-X63-Ag8 cells) value was observed for Fab SEQ ID NOs. 35. 36 (Fab, V domains shown) VH: EVQLVESGGGVVQPGRSLRLSCAASGFTFSNYPMHWVRQAPGKGLEWVAVISYDGSEKWYADSVKGRFTISRDNSKNTLYLEMNSLRPEDTAVYYCARNRGDIYYDFTYAMDYWGQGTTVTVSS VL: DIQLTQSPSTLSASVGDSVTITCRASEGVDRWLAWYQQKPGRAPKLLIYDASTLQSGVPSRFSGSGSGTEFSLTISSLQPDDVATYYCQHFWSTPYTFGQGTKLEIK ?
Solution: 61.4

Problem: What does the data say about its IC50 (nM), TTSS-dependent cytotoxicity assay (PA103 killing of P3-X63-Ag8 cells)? Entry: Fab SEQ ID NOs: 5, 6 (Fab, V domains shown) VH: QVQLVESGGGVVQPGRSLRLSCTASGFSFSSYGMHWVRQAPGKGLEWVAVIWYNGKEISYADSVKGRFTVSRDNPKNTLYLQMSSLRTEDTAVYYCARNRGDIYYDFTYAMDIWGQGTMVTVSS VL: AIQLTQSPSFLSASVGDRVTITCRASQGISTYLAWYQQKPGKAPKLLIYAASSLQSGVPSRFSGSGSGTDFTLTISSLQPEDVATYYCQQFWSTPYTFGQGTKLEIK
Solution: 50.2
